# System: SR
# procedure summary: NCI tumour cell line growth inhibition, 48 h
The source made the active and inactive calls. Rule as the data show it: active = GI50 up to about 1.1 µM and inactive = higher.
Parameter: GI50. Scope: all listed entries.

Please review the following examples before continuing.
molecule | GI50
CCOP(=O)(OCC)C(c1ccccc1)N(C(=O)NC(F)(F)F)c1cccc(F)c1 (stereo not drawn) | > 100 µM (inactive)
CC(=O)O[C@H]1C(=O)[C@@]2(C)[C@H]([C@H](OC(=O)c3ccccc3)[C@]3(O)C[C@H](OC(=O)[C@H](O)[C@@H](NC(=O)c4cccc(N=[N+]=[N-])c4)c4ccccc4)C(C)=C1C3(C)C)[C@]1(OC(C)=O)CO[C@@H]1C[C@@H]2O | < 0.0025 µM (active)
O=C(Nc1ccccc1)c1cc(S(=O)(=O)NC2=Nc3ccc(Cl)cc3C(c3ccccc3)N2)c(SSc2cc(Cl)c(C(=O)Nc3ccccc3)cc2S(=O)(=O)NC2=Nc3ccc(Cl)cc3C(c3ccccc3)N2)cc1Cl (stereo not drawn) | 13.6 µM (inactive)
COc1cc(OC)c2c(=O)c3c([N+](=O)[O-])cccc3n(C)c2c1 | > 100 µM (inactive)
COc1ccc(N/N=C2\CCOc3ccc(C)cc3C2=O)cc1 | 15.6 µM (inactive)

Q) Give its GI50 value. Item: O=C1CC(C(COCc2ccccc2)OCc2ccccc2)CC(=O)N1 (stereo not drawn)
A) > 100 µM (inactive)

Q) Which value of GI50 has been reported for c1nncn1C12C3C4C5C3C1C5C42 (stereo not drawn) in the records?
A) > 100 µM (inactive)

Q) Query (molecule): CCN(CC)/[N+]([O-])=N/OCC(C)O (stereo not drawn) ; field requested: GI50
A) > 100 µM (inactive)

###

# System: K562
# procedure summary: NCI tumour cell line growth inhibition, 48 h
The source made the active and inactive calls. No stated cut-off is given here; in the data, active = GI50 up to about 1.1 µM and inactive = higher.
Write down the outcome that applies. Available outcomes: yes for active, no for inactive

These recorded examples may help you get a feel for the data.
compound | assigned category
CC(C)(Cl)C(Br)CCC(C)(Br)C(Br)CBr (configuration not stated) | no
O=C(CSc1nnc(Cc2ccccc2)o1)Nc1ccc(Cl)cc1 | no
N#CC1=C(N)OC2=C(CCCc3ccc([N+](=O)[O-])cc32)C1c1ccc(Cl)cc1 (configuration not stated) | no
COC(=O)/C(=N\NC(=O)c1ccccc1O)C(C#N)c1ccccc1 (configuration not stated) | no
CCOC(=O)c1cc2cc(C)cc(C(=O)c3ccc([N+](=O)[O-])cc3)c2[nH]1 | no

Now for a further compound.
Q) What did this assay record as the result for c1ccc([B-]2(c3ccccc3)OCCc3cccc[n+]32)cc1 ?
A) no

###

Examples of compounds with documented GI50 follow.
# Tested on: SF-268
# procedure summary: NCI tumour cell line growth inhibition, 48 h
Activity calls are given as the source filed them. No stated cut-off is given here; in the data, active = GI50 up to about 1.1 µM and inactive = higher.

Reference set, count: 3
compound | observable | measurement
CCOC(=O)c1cc2cc(C)cc(C(=O)c3ccc([N+](=O)[O-])cc3)c2[nH]1 | GI50 | > 100 µM (inactive)
CC1(C)CC(=O)c2[nH]c3ccccc3c2CC(=O)NCCc2cn1cn2 | GI50 | > 100 µM (inactive)
c1ccc(C2N=C(c3ccccn3)C(c3ccccn3)=NC2c2ccccc2)cc1 (stereo not drawn) | GI50 | > 100 µM (inactive)

Q) Suppose we examine the compound CNCC(SC)c1ccc(O)c(O)c1 (stereo not drawn) ; what GI50 value has been reported?
A) 38.1 µM (inactive)

Q) Which GI50 value is on record for N#CC1=C(N2CCCC2)NC(=O)CC1=O ?
A) > 100 µM (inactive)

Q) # input compound: Cc1ccc(NC(=O)C(=O)Cc2cc[n+]([O-])cc2)cc1 ; wanted: its GI50
A) > 100 µM (inactive)

Q) Look up GI50 for this compound: CC12C(=O)OC(=O)C1(C)C1C=CC2O1 (stereo not drawn)
A) 59.7 µM (inactive)

Q) Tell me the measured GI50 of COc1ccc(-n2nnc(C(N)=O)c2O)cc1 , please.
A) > 100 µM (inactive)

Q) GET /values?readout=GI50&item= CC(=O)Oc1cc2c(cc1OC(C)=O)C1(C)CCC2(C)c2cc(OC(C)=O)c(OC(C)=O)cc21
A) 19.2 µM (inactive)

Q) What value of measured GI50 is listed for CCC1N2CCCCC2[C@@H]2c3[nH]c4ccccc4c3CCN12 (stereo partly drawn) ?
A) > 100 µM (inactive)

Q) Looking for the measured GI50 of OC(c1ccccc1)(c1ccccc1)c1cccnc1 , can you help?
A) > 100 µM (inactive)

Q) State the recorded GI50 for this entry: CCCN(CCCC(NC(C)=O)C(=O)NCc1ccccc1)C(=O)N(C)N=O (stereo not drawn)
A) > 100 µM (inactive)

Q) Can you look up the measured GI50 of CC1(C)OCC=CCO1 for me?
A) > 100 µM (inactive)

Q) What measured GI50 goes with CN1CCC(O)C(CNC23CC4CC(CC(C4)C2)C3)C1 (stereo not drawn) ?
A) > 100 µM (inactive)

Q) Which GI50 is reported for this compound? CN1C=C(C(N)=O)Cc2ccsc21
A) > 100 µM (inactive)

Q) Suppose we examine the compound C=C1[C@H](OC(=O)C(C)C)[C@]23CC4(O)[C@@H]5[C@@]6(C)CCC[C@]57C([C@@H]2C[C@@]1(O)[C@H](O)[C@@H]73)N4C6 ; what GI50 value has been reported?
A) > 100 µM (inactive)

Q) Name the recorded GI50 for CCOC(=O)Nc1cc2c(c(N)n1)N=C(c1ccccc1)[C@H](C)N2 [MIVOBULIN ISETHIONATE] .
A) < 0.0001 µM (active)

Q) Give the measured GI50 of CC(=O)OCC1OC(NC(=S)Nn2c(=O)[nH]c3ccccc3c2=O)C(OC(C)=O)C(OC(C)=O)C1OC(C)=O (stereo not drawn) .
A) > 100 µM (inactive)

Q) Please give the measured GI50 for this compound: O=[N+]([O-])C(/C=N/Nc1ccccc1)/C=N/Nc1ccccc1
A) > 100 µM (inactive)

Q) Which value of GI50 has been reported for N#CC(c1ccc(O)cc1)N1CCN(C(C#N)c2ccc(O)cc2)CC1 (stereo not drawn) in the records?
A) 24.5 µM (inactive)

Q) Query: GI50; subject: O=P(O)(O)c1ccccc1Oc1ccccc1
A) > 100 µM (inactive)

Q) Which GI50 is listed for CCOCN1COCN(C)C1=O ?
A) > 100 µM (inactive)

Q) Quick one: GI50 for C=CCn1c(=O)ccn(/C(=C/C(=O)OCC)C(=O)OCC)c1=O ?
A) 19.7 µM (inactive)

###

Examples of compounds with documented GI50 follow.
# Tested on: SW-620
# procedure summary: NCI tumour cell line growth inhibition, 48 h
Activity calls are given as the source filed them. Cut-off read from the data, not from the text of the source: active = GI50 up to about 1.1 µM and inactive = higher.

These recorded examples may help you get a feel for the data.
compound | measurement
O=C1Oc2ccccc2C1C/C(=N\Nc1ccccc1)c1ccccc1O (stereo unspecified) | 29.9 µM (inactive)
Cc1ccc(N2C(=O)N(c3ccc(C)cc3)C3(SC=NN3C)C2=O)cc1 (stereo unspecified) | > 100 µM (inactive)
CC(C)n1c(=O)n(-c2ccccc2)n(C(C)(C)C)c1=O | > 100 µM (inactive)
CC(C)/C(Cl)=N\OC(=O)Nc1ccc(C#N)cc1 | 1.81 µM (inactive)
CNCC(SC)c1ccc(O)c(O)c1 (stereo unspecified) | 19.4 µM (inactive)

Q) Please provide the recorded GI50 for N#Cc1c(C#N)c(-c2ccco2)n(/N=C/c2ccco2)c1N , tested on SW-620.
A) > 100 µM (inactive)

Q) For the record CCCNC(=O)N1CC(CN2CCN(c3ccccc3)CC2)O/C1=N/C(=O)Nc1ccccc1 (stereo unspecified) , what value of GI50 is listed for SW-620?
A) > 100 µM (inactive)

Q) Can you look up GI50 on SW-620 for Cc1ccc(N2CCC3(CC2)OCCO3)cc1 ?
A) > 100 µM (inactive)

Q) Can you look up GI50 on SW-620 for CCc1cccc(CC)c1NC1=CC(=O)C(=O)c2ccccc21 ?
A) 16.5 µM (inactive)

Q) What reported GI50 corresponds to O=C1OCc2c1cc1cc3c(cc1c2-c1ccc2c(c1)OCO2)OCO3.O=C1OCc2cc3cc4c(cc3c(-c3ccc5c(c3)OCO5)c21)OCO4 on SW-620?
A) 4.51 µM (inactive)

Q) Query for SW-620: what GI50 does the record show for O=P(O)(O)c1ccccc1Oc1ccccc1 ?
A) > 100 µM (inactive)

###

# Test system: MDA-MB-231
# procedure summary: NCI tumour cell line growth inhibition, 48 h
Active and inactive are the calls of the source. Rule as the data show it: active = GI50 up to about 1.1 µM and inactive = higher.
Your response should consist of one outcome taken from true (1) (active), false (0) (inactive)

Please review the entries below; each comes with its answer.
compound | assigned category
CC(=O)NC1C(OCc2ccccc2)OC(CO)C(O)C1OC(C)C(=O)NC(C(=O)N[C@@H](CCC(=O)NCCNCCNc1c2ccccc2nc2cccc([N+](=O)[O-])c12)C(N)=O)C(C)C (stereo partly specified) | false (0)
C=CCn1c(=O)ccn(/C(=C/C(=O)OCC)C(=O)OCC)c1=O | false (0)
C=C1CC2CC[C@@]34C[C@H]5O[C@@H]6C(O[C@H]7CC[C@H](CC(=O)OC8[C@H](C)C9OC%10C[C@]%11(C[C@@H]%12O[C@]%13(C[C@H](C)[C@@H]%14O[C@H]([C@H](O)C[C@H](O)CO)C[C@@H]%14O%13)C[C@H](C)[C@@H]%12O%11)OC%10CC9O[C@H]8C[C@H]8O[C@H](CC[C@@H]1O2)C[C@@H](C)C8=C)O[C@H]7[C@@H]6O3)[C@@H]5O4 (stereo partly specified) | true (1)
O=C(/C=C/c1ccc(O)c(O)c1)OCCOC(=O)/C=C/c1ccc(O)c(O)c1 | false (0)

Q) What call does the record list for COc1cc2cc(C(=O)N3C[C@@H](CCl)c4c3cc(N)c3ccccc43)[nH]c2c(OC)c1OC ?
A) true (1)

Q) Called result for N#Cc1nc(C#N)n(S(=O)(=O)c2ccccc2)c1NS(=O)(=O)c1ccccc1
A) false (0)

Q) Outcome logged for CN1C2CCC1CC(CCNC(c1ccccc1)c1ccccc1)C2 (stereo unspecified) in this assay:
A) false (0)

Q) Outcome logged for CN1Cc2ccccc2S(=O)(=O)n2cccc2C1=O in this assay:
A) false (0)

Q) Hi, do you know how CCOC(=O)c1cc(-c2ccc(OC)c(OC)c2)cn1C came out in this test?
A) false (0)

Q) Field: outcome | Entry: CC(C)(C)OC(=O)NCCC(=O)NC1(c2cc3ccccc3s2)CCCCC1
A) false (0)

Q) State the result this test recorded for CN(C)CC1CN=C(N)O1 (stereo unspecified) .
A) false (0)

Q) Give the logged outcome of this assay for the following compound: COc1ccc2c3c([nH]c2c1)-c1nc2ccccc2c(=O)n1CC3
A) false (0)

Q) Hey, what did the test say about Fc1ccccc1C1SCC2=Nc3ccccc3CN21 (stereo unspecified) ?
A) false (0)

Q) Called result for CC(=O)OC(C)(C)[C@H]1O[C@]23O[C@]1(C)C[C@@H](C)[C@@H]2[C@@]1(C)CC[C@@]24C[C@@]25CC[C@H](O[C@@H]2OC[C@@H](O)[C@H](O)[C@H]2O)C(C)(C)[C@@H]5CC[C@H]4[C@]1(C)[C@H]3O
A) false (0)

Q) Hey, what did the test say about CC1CNC(c2cccc(OCc3ccc(COc4cccc(C5=NC(C)CN5)c4)cc3)c2)=N1 (stereo unspecified) ?
A) false (0)

Q) How was O=C1CC2(CCNCC2)C(=O)N1N1CCOCC1 classified in this test?
A) false (0)
